# ASSAY_TEXT: Desvenlafaxine particle size (MMD)
# Format: physicochemical
# ASSAY_SETUP: particle size of desvenlafaxine salt grade
Listing of entries alongside the reported MMD (mass mean diameter).

| COMPOUND | MEASUREMENT_UNIT | MMD (mass mean diameter) |
| --- | --- | --- |
| CN(C)CC(c1ccc(O)cc1)C1(O)CCCCC1.O=C(O)/C=C/C(=O)O (stereo not shown) [Coarse fumarate] | μm | 184 |
| CN(C)CC(c1ccc(O)cc1)C1(O)CCCCC1.O=C(O)CCC(=O)O (stereo not shown) [Coarse succinate] | μm | 186 |
| CN(C)CC(c1ccc(O)cc1)C1(O)CCCCC1.O=C(O)CCC(=O)O (stereo not shown) [Fine succinate] | μm | 37 |
| CN(C)CC(c1ccc(O)cc1)C1(O)CCCCC1.O=C(O)/C=C/C(=O)O (stereo not shown) [Fine fumarate] | μm | 21 |
